Assay: Parallel artificial membrane permeability test (Lipid PAMPA)
Format: in vitro ADME
Conditions: pH 7.4, test concentration 10 μM, read-out: rate of recovery %
READOUT TYPE: recovery at 16 h, 10 μM (%)

[[record]]
compound = "O=C(c1ccc(F)cn1)N1CC[C@@]2(C[C@@H](O)c3cc(-c4ccccc4C4CC4)ccc32)C1 [Example 21]"
readout_type = "recovery at 16 h, 10 μM"
reading_unit = "%"
experimental_result = 18.8

[[record]]
compound = "O=C(c1ccc(F)cn1)N1CCC2(CC(O)c3cc(-c4ccccc4C4CC4)ccc32)C1 (centres unmarked) [Example 15]"
readout_type = "recovery at 16 h, 10 μM"
reading_unit = "%"
experimental_result = 16.9

